Below: a set of entries, each annotated with reported IC50.
TEST_SYSTEM: Photoreceptor-specific nuclear receptor (Homo sapiens, UniProt Q9Y5X4);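 note: CHO-S cells with Gal4-NCOR and VP16-NR2E3 two-hybrid luciferase reporter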
Sequence (Q9Y5X4 whole entry, the tested form may be a part): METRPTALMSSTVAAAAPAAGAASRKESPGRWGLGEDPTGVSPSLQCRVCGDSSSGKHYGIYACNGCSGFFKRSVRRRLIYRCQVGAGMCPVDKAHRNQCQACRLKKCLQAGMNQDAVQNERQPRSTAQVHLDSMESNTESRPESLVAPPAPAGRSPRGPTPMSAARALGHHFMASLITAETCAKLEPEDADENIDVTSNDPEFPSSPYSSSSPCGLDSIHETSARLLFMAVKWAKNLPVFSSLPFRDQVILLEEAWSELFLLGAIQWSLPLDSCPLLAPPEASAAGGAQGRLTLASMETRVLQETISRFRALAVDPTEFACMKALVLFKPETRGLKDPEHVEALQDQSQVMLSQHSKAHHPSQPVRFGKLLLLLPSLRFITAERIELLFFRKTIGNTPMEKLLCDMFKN
Assay type: functional, cell-based
The source made the active and inactive calls.
MEASURED_QUANTITY: IC50

# COMPOUND, MEASURED_QUANTITY, READOUT_VALUE
data = [
    ("Cc1c(Cl)ccc2sc(N3CCN(C(=O)C4=COCCO4)CC3)nc12", "IC50", "4.06 µM (active)"),
    ("CCC1(C)Cc2c(sc3[nH]c(=S)n(Cc4ccccc4)c(=O)c23)CO1 (stereo not given)", "IC50", "4.95 µM (active)"),
    ("CC(C)(C)C(=O)Nc1ccc(Sc2ccc([N+](=O)[O-])cc2)cc1", "IC50", "3.51 µM (active)"),
    ("CCC(=O)N1CCCc2cc(S(=O)(=O)N3CCN(c4ccccn4)CC3)ccc21", "IC50", "2.3 µM (active)"),
    ("CN=C(S)N=CNOCc1ccc(Cl)cc1Cl", "IC50", "3.21 µM (active)"),
]

====

TEST_SYSTEM: Carboxy-terminal domain RNA polymerase II polypeptide A small phosphatase 1 (Homo sapiens, UniProt Q9GZU7)
Sequence (Q9GZU7 whole entry, the tested form may be a part): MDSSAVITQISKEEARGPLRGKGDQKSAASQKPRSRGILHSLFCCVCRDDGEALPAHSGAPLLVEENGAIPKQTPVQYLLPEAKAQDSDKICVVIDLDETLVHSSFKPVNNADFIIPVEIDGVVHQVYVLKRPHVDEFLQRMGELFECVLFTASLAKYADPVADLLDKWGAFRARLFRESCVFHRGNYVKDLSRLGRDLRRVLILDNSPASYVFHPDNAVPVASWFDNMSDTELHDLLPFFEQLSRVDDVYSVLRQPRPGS
ASSAY_NOTES: inhibitors of CTDSP1, concentration-response testing, biochemical assay, absorbance-based, actives from ultra-high-throughput screening (AID 540297)
Assay type: functional
The source made the active and inactive calls.

# MOLECULE, IC50
measured = [
    ("CCOC(=O)C(=O)Cc1cccnn1", "4.08 µM (active)"),
    ("C=C(C)C(=O)Nc1cccc(C2=NOC3(C2)C[C@H](C(N)=O)N(C(=O)/C=C/C)C3)c1 (some centres undefined)", "1.61 µM (active)"),
    ("Cc1ccc(-n2[nH]c(C)c(/C=N/Nc3ccc([N+](=O)[O-])cc3[N+](=O)[O-])c2=O)cc1", "6.07 µM (active)"),
    ("C[N+]1(C2CCC3CCCC2C3O)CCCCC1 (centres undefined)", "6.61 µM (active)"),
]

====

TEST_SYSTEM: Sentrin-specific protease 6 (Homo sapiens);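 note: Luminescence-based dose-response confirmatory assay of SENP6 inhibition, following up an ultra-high-throughput screen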
Sequence (Q9GZR1 whole entry): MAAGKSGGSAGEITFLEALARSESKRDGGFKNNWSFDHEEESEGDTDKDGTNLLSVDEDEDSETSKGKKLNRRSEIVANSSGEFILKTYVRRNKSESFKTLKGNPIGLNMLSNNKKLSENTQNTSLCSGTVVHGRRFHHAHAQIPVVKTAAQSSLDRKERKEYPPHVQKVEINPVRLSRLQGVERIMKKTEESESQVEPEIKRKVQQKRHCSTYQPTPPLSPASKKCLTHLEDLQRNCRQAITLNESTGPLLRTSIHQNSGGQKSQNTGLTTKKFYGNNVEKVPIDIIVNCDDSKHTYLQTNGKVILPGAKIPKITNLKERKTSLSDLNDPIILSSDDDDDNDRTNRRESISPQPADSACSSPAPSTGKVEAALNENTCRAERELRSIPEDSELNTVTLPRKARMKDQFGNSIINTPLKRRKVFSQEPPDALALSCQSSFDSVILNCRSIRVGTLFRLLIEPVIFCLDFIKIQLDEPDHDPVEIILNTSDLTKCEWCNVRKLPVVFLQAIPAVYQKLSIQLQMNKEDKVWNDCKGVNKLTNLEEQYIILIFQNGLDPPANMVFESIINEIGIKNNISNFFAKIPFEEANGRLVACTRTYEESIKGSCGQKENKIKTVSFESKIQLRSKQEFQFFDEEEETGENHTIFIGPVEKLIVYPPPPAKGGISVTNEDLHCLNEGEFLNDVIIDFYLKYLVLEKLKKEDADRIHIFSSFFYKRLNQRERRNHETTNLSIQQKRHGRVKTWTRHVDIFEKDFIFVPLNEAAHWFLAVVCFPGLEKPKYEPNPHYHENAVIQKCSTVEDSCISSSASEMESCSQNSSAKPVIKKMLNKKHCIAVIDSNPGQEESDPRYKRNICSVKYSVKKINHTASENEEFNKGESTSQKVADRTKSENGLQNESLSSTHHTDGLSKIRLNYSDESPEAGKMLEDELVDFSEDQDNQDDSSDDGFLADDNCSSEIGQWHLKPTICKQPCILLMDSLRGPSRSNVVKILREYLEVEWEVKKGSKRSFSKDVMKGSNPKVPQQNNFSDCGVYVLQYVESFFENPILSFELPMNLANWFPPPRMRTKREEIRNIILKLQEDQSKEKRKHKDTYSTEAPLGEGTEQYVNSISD
Format: functional
The source made the active and inactive calls.
Outcome codes: active, inactive

# STRUCTURE, LABEL
rows = [
    ("Nn1c(SCc2ccccc2)nc2c(cnn2-c2ccccc2)c1=O", "inactive"),
    ("O=C(Cn1cc(SCc2ccc(F)cc2)c2ccccc21)N1CCOCC1", "active"),
    ("Nc1c(C(=O)Nc2cccc(C(=O)O)c2)sc2nc3c(cc12)CCCC3", "active"),
    ("Clc1ccc(C2=CSC3=Nc4cccc5cccc(c45)N23)cc1", "active"),
]

====

Each entry below carries its measured AC50, system: Cytochrome P450 2C9 (Homo sapiens).
Sequence (P11712 whole entry): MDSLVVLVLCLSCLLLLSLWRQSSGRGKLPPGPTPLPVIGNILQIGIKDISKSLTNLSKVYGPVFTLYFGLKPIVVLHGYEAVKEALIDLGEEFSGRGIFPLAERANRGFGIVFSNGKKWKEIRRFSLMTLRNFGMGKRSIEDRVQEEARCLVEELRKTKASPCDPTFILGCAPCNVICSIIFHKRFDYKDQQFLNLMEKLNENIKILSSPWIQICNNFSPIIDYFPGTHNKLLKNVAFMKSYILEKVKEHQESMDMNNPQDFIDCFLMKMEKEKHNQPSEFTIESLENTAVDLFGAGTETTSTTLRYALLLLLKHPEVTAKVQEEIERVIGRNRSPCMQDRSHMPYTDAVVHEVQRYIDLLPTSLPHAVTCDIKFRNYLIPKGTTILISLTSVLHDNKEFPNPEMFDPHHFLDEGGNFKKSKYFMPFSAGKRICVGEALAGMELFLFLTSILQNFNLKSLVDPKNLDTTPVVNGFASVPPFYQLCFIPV

# COMPOUND, TEST_SYSTEM, AC50
records = [
    ("O=S(=O)(c1ccccc1)N1CCC[C@@]2(CCN(Cc3nccs3)C2)C1", "Cytochrome P450 2C9 (Homo sapiens)", "31.6 µM (inconclusive)"),
    ("COC(=O)[C@@H]1CC[C@H](C)[C@@H](c2ccc(C)cc2)N1C(=O)c1ccc(/C=N\\O[C@@H]2O[C@H](COC(C)=O)[C@H](OC(C)=O)[C@H](OC(C)=O)[C@H]2OC(C)=O)cc1", "Cytochrome P450 2C9 (Homo sapiens)", "1.58 µM (inconclusive)"),
    ("O=C(Nc1ccccc1)[C@@]12C[C@@H]1/C(=N/O)c1ccccc1O2", "Cytochrome P450 2C9 (Homo sapiens)", "20 µM (inconclusive)"),
    ("C=C1[C@@H](O)C2C=CC[C@H](C)C(=O)[C@@](C)(O)C=C[C@@H](OC(C)=O)[C@@]23C(=O)N[C@H](Cc2ccccc2)[C@@H]3[C@@H]1C (stereo not given in full)", "Cytochrome P450 2C9 (Homo sapiens)", "31.6 µM (inconclusive)"),
    ("CC(C)=CC(=O)OCC(=O)Nc1ncc(Cl)c(C)c1Cl", "Cytochrome P450 2C9 (Homo sapiens)", "0.0631 µM (inconclusive)"),
    ("COc1ccccc1CNc1ncnc2ccc(-c3ccc(N(C)C)cc3)cc12", "Cytochrome P450 2C9 (Homo sapiens)", "0.631 µM (inconclusive)"),
    ("Cc1ccc2occ(/C=C/C(=O)O)c(=O)c2c1", "Cytochrome P450 2C9 (Homo sapiens)", "25.1 µM (inconclusive)"),
    ("CC/C=C\\CC[C@H](OC(=O)c1ccc(Br)cc1)C1=CCCCC1=O", "Cytochrome P450 2C9 (Homo sapiens)", "3.16 µM (inconclusive)"),
    ("Cc1ccc(CSc2nnc([C@@H]3CCCN3)o2)cc1", "Cytochrome P450 2C9 (Homo sapiens)", "10 µM (inconclusive)"),
    ("O=C1CCCN1CC(CN1CCOCC1)Sc1nnnn1-c1ccccc1 (stereo not given)", "Cytochrome P450 2C9 (Homo sapiens)", "6.31 µM (inconclusive)"),
    ("COc1ccc(-n2c(=O)c(-c3cccs3)nc3cnc(Oc4ccccc4)nc32)cc1", "Cytochrome P450 2C9 (Homo sapiens)", "12.6 µM (inconclusive)"),
    ("O=C(OCn1nnc2ccccc2c1=O)c1cccnc1", "Cytochrome P450 2C9 (Homo sapiens)", "25.1 µM (inconclusive)"),
    ("CC(NC(=O)c1ccc(N2CCCC2=O)cc1)c1ccccc1 (stereo not given)", "Cytochrome P450 2C9 (Homo sapiens)", "15.8 µM (inconclusive)"),
    ("CCC(=O)N1CCn2c1nc1ccccc12", "Cytochrome P450 2C9 (Homo sapiens)", "1.41 µM (inconclusive)"),
    ("O=c1cc(-c2ccccc2)oc2cc(O)cc(O)c12 [CHRYSIN]", "Cytochrome P450 2C9 (Homo sapiens)", "5.01 µM (inconclusive)"),
    ("FC(F)(F)c1nc2ccccc2nc1N/N=C\\c1ccccc1", "Cytochrome P450 2C9 (Homo sapiens)", "20 µM (inconclusive)"),
    ("COC(=O)[C@@H]1CC[C@H](C)[C@@H](c2ccc(C)cc2)N1C(=O)c1ccc(/C=N\\O[C@@H](C)CN2CCCCc3nc(C)c(C)cc32)cc1", "Cytochrome P450 2C9 (Homo sapiens)", "3.16 µM (inconclusive)"),
    ("COc1ccc(-n2c(=O)cnc3cnc(N4CCNCC4)nc32)cc1", "Cytochrome P450 2C9 (Homo sapiens)", "39.8 µM (inconclusive)"),
    ("COc1ccccc1CNc1ncnc2ccc(-c3cccc(NS(C)(=O)=O)c3)cc12", "Cytochrome P450 2C9 (Homo sapiens)", "0.794 µM (inconclusive)"),
    ("O=C(NNS(=O)(=O)c1ccc(Cl)cc1)NC1CCCCC1", "Cytochrome P450 2C9 (Homo sapiens)", "17.8 µM (inconclusive)"),
]

====

Below: a set of entries, each annotated with reported IC50.
TEST_SYSTEM: DNA dC->dU-editing enzyme APOBEC-3A (Homo sapiens, UniProt P31941)
Sequence (P31941 whole entry): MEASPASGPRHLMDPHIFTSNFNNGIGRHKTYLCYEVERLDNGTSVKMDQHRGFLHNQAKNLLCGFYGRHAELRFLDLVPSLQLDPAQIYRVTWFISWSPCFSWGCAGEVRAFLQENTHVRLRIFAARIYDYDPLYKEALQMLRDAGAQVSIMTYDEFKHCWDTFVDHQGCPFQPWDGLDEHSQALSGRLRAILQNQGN
ASSAY_NOTES: Dose Response confirmation of small molecule APOBEC3A DNA Deaminase Inhibitors via a fluorescence-based single-stranded DNA deaminase assay. [Related pubchem assays (depositor defined):AID493011, AID493024]
Format: functional
Calls of active or inactive are those of the source.

# MOLECULE, IC50
records = [
    ("COc1ccc2c(/C=C/c3cc[n+](C)cc3)c[nH]c2c1", "6.12 µM (active)"),
    ("O=C(O)Cc1ccc(S(=O)(=O)N2CCCC2)s1", "17.4 µM (active)"),
    ("C[N+]1(C2CCC3CCCC2C3O)CCCCC1 (stereo unspecified)", "2.42 µM (active)"),
    ("CCCc1nc2sc3c(SCC(=O)NCc4ccco4)ncnc3c2c2c1CCC2", "15.8 µM (active)"),
    ("COc1cc(C)c(NC(=O)C2CCN(S(=O)(=O)c3cccs3)CC2)cc1OC", "12 µM (active)"),
    ("CC(=Nc1cc(C)cc(C)c1)N(C)CCNS(=O)(=O)c1ccc(Cl)cc1", "2.67 µM (active)"),
]

====

Below: a set of entries, each annotated with reported IC50.
TEST_SYSTEM: Induced myeloid leukemia cell differentiation protein Mcl-1 (Homo sapiens)
Sequence (Q07820 whole entry): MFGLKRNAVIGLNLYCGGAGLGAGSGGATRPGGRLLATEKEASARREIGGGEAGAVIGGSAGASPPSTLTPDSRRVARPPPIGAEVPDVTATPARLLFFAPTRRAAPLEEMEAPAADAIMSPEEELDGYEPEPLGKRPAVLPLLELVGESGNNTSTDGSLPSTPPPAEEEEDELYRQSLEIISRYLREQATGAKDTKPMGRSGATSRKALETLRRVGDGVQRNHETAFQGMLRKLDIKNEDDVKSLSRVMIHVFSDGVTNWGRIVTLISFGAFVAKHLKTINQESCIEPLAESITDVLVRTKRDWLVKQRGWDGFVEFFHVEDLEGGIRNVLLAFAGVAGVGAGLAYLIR
Type: functional
Activity calls are given as the source filed them.
MEASURED_QUANTITY: IC50

# COMPOUND, READOUT_VALUE
measured = [
    ("CCCSC1=N/C(=C\\C=C\\c2ccco2)C(=O)S1", "3.97 µM (active)"),
    ("O=C(N/N=C/c1ccc(-c2ccc(Cl)c(C(=O)O)c2)o1)c1cc2c(ccc3ccccc32)o1", "1.55 µM (active)"),
    ("O=C1Nc2ccc(Br)cc2/C1=C/C(=O)c1ccc2c(c1)OCO2", "1.29 µM (active)"),
    ("O=C(Nc1nccs1)c1cccc(N2C(=O)c3cccc4c([N+](=O)[O-])ccc(c34)C2=O)c1", "1.45 µM (not active)"),
    ("CN1C(=O)/C(=C/c2ccc(-c3ccccc3[N+](=O)[O-])o2)S/C1=N\\c1ccc(Cl)c(C(=O)O)c1", "14 µM (active)"),
    ("c1coc(-c2nc3ccccc3nc2-c2ccco2)c1", "< 0.4 µM (active)"),
    ("NC(=S)n1nc(-c2ccc([N+](=O)[O-])cc2)c(/N=N/c2ccc(Cl)cc2)c1O", "> 54 µM (active)"),
    ("C=C(C)C(=O)Nc1cccc(C2=NOC3(C2)C[C@H](C(N)=O)N(C(=O)/C=C/C)C3)c1 (stereo not given in full)", "3.48 µM (active)"),
    ("Oc1ccccc1NCC(O)Cn1ccc2ccccc21 (stereo not given)", "4.49 µM (active)"),
    ("Cc1ccc(NC(S)=NNc2ccc([N+](=O)[O-])cc2S(=O)(=O)Nc2ccccc2C(=O)O)cc1C", "2.99 µM (active)"),
]
